Reported values of IC50 for individual entries
Target: TYRO3 (Homo sapiens, UniProt Q06418)
Sequence (Q06418 41-890): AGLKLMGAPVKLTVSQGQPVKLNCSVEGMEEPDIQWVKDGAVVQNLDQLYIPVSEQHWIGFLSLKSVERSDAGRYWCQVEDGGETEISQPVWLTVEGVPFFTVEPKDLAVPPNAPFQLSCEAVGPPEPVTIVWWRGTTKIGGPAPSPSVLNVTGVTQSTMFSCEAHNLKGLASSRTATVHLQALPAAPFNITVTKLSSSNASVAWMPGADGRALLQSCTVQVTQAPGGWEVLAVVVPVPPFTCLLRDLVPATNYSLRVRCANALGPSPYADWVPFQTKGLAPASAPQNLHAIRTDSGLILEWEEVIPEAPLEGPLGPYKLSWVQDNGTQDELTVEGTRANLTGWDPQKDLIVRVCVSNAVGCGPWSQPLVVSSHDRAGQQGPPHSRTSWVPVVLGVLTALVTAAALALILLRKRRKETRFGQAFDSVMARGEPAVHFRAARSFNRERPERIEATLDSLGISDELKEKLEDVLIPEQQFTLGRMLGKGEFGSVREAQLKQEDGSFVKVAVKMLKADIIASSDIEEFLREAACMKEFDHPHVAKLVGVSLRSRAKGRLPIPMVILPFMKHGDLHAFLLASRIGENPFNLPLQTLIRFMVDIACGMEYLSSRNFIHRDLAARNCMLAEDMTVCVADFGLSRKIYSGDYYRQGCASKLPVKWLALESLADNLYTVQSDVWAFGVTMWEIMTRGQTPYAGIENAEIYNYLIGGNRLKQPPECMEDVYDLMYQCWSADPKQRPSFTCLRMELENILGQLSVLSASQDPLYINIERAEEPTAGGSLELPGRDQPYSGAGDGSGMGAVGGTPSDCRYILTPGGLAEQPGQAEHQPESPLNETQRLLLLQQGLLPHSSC
Assay: Microfluidic capillary electrophoresis (MCE) kinase activity assay, Tyro3
Assay type: biochemical
Details: Table 12

CN1CCN(Cc2ccc(-c3cn([C@H]4CC[C@H](O)CC4)c4nc(Nc5cc(C(F)(F)F)cc(C(F)(F)F)c5)ncc34)cn2)CC1 ... < 10 nM

Here is another compound to look at.
Requested read-out: IC50. Entry: "CN1CCN(Cc2ccc(-c3cn([C@H]4CC[C@H](O)CC4)c4nc(Nc5cc(F)cc(Cl)c5)ncc34)cn2)CC1"
< 10 nM

---

Target: MERTK (Homo sapiens)
Sequence (Q12866 21-999): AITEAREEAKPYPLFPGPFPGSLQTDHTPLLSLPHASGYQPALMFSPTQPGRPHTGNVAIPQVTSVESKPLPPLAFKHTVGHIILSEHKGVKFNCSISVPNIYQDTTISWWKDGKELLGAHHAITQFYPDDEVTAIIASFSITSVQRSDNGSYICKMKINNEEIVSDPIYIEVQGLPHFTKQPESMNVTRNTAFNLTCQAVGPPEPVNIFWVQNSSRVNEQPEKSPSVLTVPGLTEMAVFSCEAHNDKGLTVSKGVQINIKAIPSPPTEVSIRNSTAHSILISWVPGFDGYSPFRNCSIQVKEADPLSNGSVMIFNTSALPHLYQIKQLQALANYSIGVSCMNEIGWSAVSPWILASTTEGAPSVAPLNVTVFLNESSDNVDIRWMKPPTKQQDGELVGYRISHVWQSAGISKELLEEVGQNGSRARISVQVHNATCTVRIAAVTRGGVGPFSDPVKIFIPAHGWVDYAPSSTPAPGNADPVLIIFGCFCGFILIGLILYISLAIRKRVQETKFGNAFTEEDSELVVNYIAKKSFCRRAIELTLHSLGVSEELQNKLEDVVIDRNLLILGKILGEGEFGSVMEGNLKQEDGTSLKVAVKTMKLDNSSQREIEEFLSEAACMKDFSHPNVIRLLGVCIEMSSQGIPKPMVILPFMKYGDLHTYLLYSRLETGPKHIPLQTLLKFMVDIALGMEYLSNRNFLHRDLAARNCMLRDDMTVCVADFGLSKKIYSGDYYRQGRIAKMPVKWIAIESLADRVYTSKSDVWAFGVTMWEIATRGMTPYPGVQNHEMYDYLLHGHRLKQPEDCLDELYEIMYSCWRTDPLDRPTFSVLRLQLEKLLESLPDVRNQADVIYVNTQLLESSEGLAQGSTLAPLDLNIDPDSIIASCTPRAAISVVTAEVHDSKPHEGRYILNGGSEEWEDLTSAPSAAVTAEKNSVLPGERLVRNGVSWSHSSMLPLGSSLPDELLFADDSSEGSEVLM
Test: Microfluidic capillary electrophoresis (MCE) kinase activity assay, Mer
Type: biochemical
Conditions: Table 2; MCE assay, ATP at Km
Items are presented alongside their recorded IC50.

Name the reported IC50 value associated with the molecule O[C@H]1CC[C@H](n2cc(-c3ccc(CN4CCN(C5CCCC5)CC4)cc3)c3cnc(Nc4cc(F)cc(Cl)c4)nc32)CC1 [Compound 31]
< 10 nM

# IC50 lookup, item CN1CCN(Cc2ccc(-c3cn([C@H]4CC[C@H](O)CC4)c4nc(Nc5cc(F)cc(Cl)c5)ncc34)cc2)CC1 [Compound 7]
< 10 nM

Recorded IC50 of CN1CCN(Cc2ccc(-c3cn([C@H]4CC[C@H](O)CC4)c4nc(Nc5cc(Cl)cc(C(F)(F)F)c5)ncc34)cc2)CC1 [Compound 148] , please.
10 to 100 nM

---

Biological target: MERTK (Homo sapiens)
Sequence (Q12866 21-999): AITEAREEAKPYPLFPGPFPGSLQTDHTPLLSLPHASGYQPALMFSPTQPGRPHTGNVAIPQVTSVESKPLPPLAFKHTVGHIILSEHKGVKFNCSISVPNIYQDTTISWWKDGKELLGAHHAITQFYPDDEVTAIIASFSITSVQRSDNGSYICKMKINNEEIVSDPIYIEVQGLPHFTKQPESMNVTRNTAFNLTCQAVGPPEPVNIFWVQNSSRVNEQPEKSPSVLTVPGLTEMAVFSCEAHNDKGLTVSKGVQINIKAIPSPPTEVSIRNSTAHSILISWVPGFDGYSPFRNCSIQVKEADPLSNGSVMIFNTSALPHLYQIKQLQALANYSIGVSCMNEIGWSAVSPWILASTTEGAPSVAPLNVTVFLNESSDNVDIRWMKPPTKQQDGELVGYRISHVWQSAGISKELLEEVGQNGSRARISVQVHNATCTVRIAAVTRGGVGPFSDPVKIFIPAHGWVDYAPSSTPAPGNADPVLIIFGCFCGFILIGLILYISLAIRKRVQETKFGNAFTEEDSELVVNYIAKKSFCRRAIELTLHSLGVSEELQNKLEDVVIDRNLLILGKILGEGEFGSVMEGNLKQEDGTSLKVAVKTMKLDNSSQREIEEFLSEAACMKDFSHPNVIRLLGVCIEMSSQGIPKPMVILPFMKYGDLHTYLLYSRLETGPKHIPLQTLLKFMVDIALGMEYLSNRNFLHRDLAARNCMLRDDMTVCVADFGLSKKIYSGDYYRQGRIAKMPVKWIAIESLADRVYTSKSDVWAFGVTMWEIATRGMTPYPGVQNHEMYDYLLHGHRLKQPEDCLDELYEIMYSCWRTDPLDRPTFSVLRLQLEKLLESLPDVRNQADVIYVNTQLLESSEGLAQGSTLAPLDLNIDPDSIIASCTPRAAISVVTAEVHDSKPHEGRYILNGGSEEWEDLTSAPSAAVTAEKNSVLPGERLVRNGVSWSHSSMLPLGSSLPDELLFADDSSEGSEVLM
Assay: Microfluidic capillary electrophoresis (MCE) kinase activity assay, Mer
Assay type: biochemical
Conditions: Table 3; MCE assay, ATP at Km
pIC50: −log10 of the molar value.
Assay endpoint: pIC50

// pIC50 lookup, key: CN1CCN(Cc2ccc(-c3cn([C@H]4CC[C@@H](O)CC4)c4nc(Nc5cc(F)cc(Cl)c5)ncc34)cc2)CC1 [Compound 39]
> 8.00

---

Target: UniProt:Q06418
Sequence (Q06418 41-890): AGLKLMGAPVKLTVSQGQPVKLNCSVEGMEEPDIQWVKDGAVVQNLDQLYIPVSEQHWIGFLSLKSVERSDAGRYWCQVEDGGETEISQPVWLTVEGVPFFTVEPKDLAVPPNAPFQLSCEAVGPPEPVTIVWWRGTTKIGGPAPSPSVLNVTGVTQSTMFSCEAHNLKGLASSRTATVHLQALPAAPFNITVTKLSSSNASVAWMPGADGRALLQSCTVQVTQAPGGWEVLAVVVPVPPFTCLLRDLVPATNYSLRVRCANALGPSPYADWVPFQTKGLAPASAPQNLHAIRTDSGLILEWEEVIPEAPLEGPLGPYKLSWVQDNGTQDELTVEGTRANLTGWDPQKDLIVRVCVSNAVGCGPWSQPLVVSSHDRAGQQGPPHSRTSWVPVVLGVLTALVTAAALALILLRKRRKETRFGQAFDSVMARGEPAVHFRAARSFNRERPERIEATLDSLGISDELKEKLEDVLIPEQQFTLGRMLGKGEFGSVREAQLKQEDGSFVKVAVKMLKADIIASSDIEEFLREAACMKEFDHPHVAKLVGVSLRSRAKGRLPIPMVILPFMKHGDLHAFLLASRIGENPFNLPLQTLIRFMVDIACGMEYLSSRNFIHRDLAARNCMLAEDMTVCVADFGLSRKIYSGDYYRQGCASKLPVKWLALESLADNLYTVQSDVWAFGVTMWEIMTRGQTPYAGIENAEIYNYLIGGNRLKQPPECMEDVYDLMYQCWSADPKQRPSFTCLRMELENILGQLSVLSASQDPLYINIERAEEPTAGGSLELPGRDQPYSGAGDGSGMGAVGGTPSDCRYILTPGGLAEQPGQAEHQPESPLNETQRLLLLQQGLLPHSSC
Experiment: Microfluidic capillary electrophoresis (MCE) kinase activity assay, Tyro3
Type: biochemical
Conditions: Table 11
pIC50: −log10 of the molar value.
Here, each record is paired with measured pIC50 data.

CN1CCN(Cc2ccc(-c3cc(C4CCC5(CC4)OCCO5)n4nc(Nc5cc(F)cc(Cl)c5)ncc34)cc2)CC1 ... > 8.00

Could you now consider this next compound?
What measured pIC50 goes with "CN1CCN(Cc2ccc(-c3cc(C4CCC(=O)CC4)n4nc(Nc5cc(F)cc(Cl)c5)ncc34)cc2)CC1" ?
> 8.00
